- testProtocol: Volume of distribution at steady state in Han Wistar rat at 10 mg/kg, po and 3 mg/kg, iv
- Assay type: ADME, organism-based
- testConditions: in vivo, read-out: Vdss
measurementType: Vd (L/kg)

Q) Item under review: COCCNC(C)c1ccc(Nc2ncc3cc(-c4ccncc4)ccc3n2)cc1 (configuration not stated) . Reported Vd?
A) 4.9

Q) Try this compound too: `C[C@@H](NC1=CC(=O)CCC1)c1ccc(Nc2ncc3cc(-c4ccncc4)ccc3n2)cc1`
A) 0.67

Q) Same lookup for `CC(=O)N[C@H](C)c1ccc(Nc2ncc3cc(-c4ccncc4)ccc3n2)cc1` , please.
A) 0.8

Q) Now the same for `COCCC(=O)N(C)c1ccc(Nc2ncc3cc(-c4ccncc4)ccc3n2)cc1`
A) 0.7

[I] COc1cc2nc(Nc3ccc([C@@H](C)NC(C)=O)cc3)ncc2cc1-c1ccncc1
[II] C[C@@H](NC1=CC(=O)CNC1)c1ccc(Nc2ncc3cc(-c4ccncc4)ccc3n2)cc1
[III] C[C@@H](NC(=O)[C@H]1CCCCN1)c1ccc(Nc2ncc3cc(-c4ccncc4)ccc3n2)cc1
Q) Sort these compounds on Vd so the largest reading comes first. Sort and list the labels as requested.
A) III, II, I
(III: 13 L/kg, II: 7.9 L/kg, I: 0.67 L/kg)
